B1: Caulobacter ParB omega fusion; a variant is named by its letters at X, in order, B8GW30 (parent)
chain: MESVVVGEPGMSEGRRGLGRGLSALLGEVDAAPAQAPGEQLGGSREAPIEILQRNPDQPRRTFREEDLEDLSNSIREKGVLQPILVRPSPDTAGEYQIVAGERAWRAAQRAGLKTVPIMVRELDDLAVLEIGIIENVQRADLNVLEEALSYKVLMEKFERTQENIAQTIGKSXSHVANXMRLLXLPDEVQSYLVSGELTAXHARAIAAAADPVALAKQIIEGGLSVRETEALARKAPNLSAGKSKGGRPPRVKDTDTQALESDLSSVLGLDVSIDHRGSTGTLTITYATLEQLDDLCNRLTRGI

- Variants of: B1
- Test summary: one-hybrid fitness for binding NBS DNA (the Noc-binding site; scaled: cognate 1, non-cognate 0); higher = stronger binding
- Measurement parameters: with NBS DNA site
The full ranking holds about 81,000 sequences; the median of “one-hybrid fitness for binding NBS DNA” is about -0.1, and the highest 2% start at about 0.36. For the sample, the highest values were picked, then their nearest neighbours and some sequences at random.
List of one-hybrid fitness for binding NBS DNA values.

Here are 5 variants together with their reported answers.
# Mutant designation, Measurement
data = [
    ("RVAT", 0.383),
    ("RVHD", "≤ 0.2"),
    ("SKPI", "≤ 0.2"),
    ("RHSP", "≤ 0.2"),
    ("RKSS", 0.544),
]

In: Name the recorded one-hybrid fitness for binding NBS DNA for `RVGH` .
Out: ≤ 0.2
